Just for reference, ChEMBL document CHEMBL4425109 is where these values come from.

Tested on: Plasminogen (Homo sapiens)
Test: Inhibition of human plasmin
Sequence (P00747 whole entry, looked up): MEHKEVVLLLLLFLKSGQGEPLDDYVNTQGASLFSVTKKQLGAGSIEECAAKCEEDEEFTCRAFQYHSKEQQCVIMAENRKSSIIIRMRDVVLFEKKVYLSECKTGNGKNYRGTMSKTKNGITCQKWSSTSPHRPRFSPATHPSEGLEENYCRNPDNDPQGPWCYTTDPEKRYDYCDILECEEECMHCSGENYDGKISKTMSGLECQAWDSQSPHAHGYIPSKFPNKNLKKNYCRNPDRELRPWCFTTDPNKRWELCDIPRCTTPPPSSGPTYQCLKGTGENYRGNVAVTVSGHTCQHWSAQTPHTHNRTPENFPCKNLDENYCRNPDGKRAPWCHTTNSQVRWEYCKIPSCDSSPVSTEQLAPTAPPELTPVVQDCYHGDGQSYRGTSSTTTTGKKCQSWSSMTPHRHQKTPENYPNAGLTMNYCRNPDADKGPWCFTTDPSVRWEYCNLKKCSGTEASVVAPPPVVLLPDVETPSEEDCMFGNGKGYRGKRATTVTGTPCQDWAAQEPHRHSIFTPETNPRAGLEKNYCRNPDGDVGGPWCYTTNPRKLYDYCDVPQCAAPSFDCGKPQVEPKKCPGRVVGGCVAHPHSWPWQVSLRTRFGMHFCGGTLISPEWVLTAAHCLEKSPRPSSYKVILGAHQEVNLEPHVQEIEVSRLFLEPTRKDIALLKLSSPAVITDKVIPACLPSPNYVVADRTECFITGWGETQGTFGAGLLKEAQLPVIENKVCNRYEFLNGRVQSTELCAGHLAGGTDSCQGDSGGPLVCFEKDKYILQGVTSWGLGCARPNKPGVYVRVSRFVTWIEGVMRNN
# pKi listing for each entry below
Remember, pKi is on a log scale: it is -log10 of the molar concentration.

>  <Structure smiles>
CC(C)(C)OC[C@@H](NS(=O)(=O)c1ccccc1)C(=O)NCC(=O)NCc1ccc(C(=N)N)cc1

>  <Observed>
4.62

$$$$

Give pKi (Plasminogen (Homo sapiens)) of the following compound: "CC(C)(C)OC[C@@H](NS(=O)(=O)Cc1ccccc1)C(=O)NCC(=O)NCc1ccc(C(=N)N)cc1"
5.11

* * *

Tested on: Plasminogen (Homo sapiens)
Test: Inhibition of human plasmin using Mes-DSer(Bzl)-Phe-Arg-AMC as substrate by Dixon plot analysis
Sequence (P00747 97-580 limits assumed): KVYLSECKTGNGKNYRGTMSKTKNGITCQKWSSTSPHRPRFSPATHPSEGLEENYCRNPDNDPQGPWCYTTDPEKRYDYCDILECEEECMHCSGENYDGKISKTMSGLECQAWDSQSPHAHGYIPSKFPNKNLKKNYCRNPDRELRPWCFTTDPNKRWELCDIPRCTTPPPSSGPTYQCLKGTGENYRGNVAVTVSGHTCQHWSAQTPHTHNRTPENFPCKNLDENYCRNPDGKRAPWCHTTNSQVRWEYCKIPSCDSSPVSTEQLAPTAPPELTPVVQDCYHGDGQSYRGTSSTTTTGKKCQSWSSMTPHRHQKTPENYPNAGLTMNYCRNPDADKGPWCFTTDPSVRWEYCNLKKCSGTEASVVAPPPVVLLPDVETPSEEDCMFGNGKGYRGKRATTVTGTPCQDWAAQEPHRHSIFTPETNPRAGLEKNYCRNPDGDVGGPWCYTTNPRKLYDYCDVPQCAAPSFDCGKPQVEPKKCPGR
Sequence (P00747 581-810 limits assumed): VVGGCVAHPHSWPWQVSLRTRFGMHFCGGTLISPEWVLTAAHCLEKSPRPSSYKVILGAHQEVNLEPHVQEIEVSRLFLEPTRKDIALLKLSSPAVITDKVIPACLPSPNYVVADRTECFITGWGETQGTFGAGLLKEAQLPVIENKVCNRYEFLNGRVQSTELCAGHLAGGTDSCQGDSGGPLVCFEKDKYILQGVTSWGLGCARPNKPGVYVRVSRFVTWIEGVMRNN
Result type: Ki
Hey, just the number and the unit after it is fine.

Observe how each entry below is paired with its result.
>  <Structure smiles>
N=C(N)c1ccc(CNC(=O)[C@@H]2Cc3ccc(cc3)NC(=O)CN3CCN(CC3)CC(=O)Nc3ccc(cc3)C[C@@H](N)C(=O)N2)cc1

>  <Tested on>
Plasminogen (Homo sapiens)

>  <Result type>
Ki

>  <Observed>
66.3 nM

$$$$
>  <Structure smiles>
NCCCCNC(=O)[C@@H]1Cc2ccc(cc2)NC(=O)CCN2CCN(CCC(=O)Nc3ccc(cc3)C[C@@H](NS(=O)(=O)NC3CCCCC3)C(=O)N1)CC2

>  <Tested on>
Plasminogen (Homo sapiens)

>  <Result type>
Ki

>  <Observed>
50.6 nM

$$$$
>  <Structure smiles>
N=C(N)c1ccc(CNC(=O)[C@@H]2Cc3ccc(cc3)NC(=O)CCN3CCN(CCC(=O)Nc4ccc(cc4)C[C@@H](NS(=O)(=O)NC4CCCCC4)C(=O)N2)CC3)cc1

>  <Tested on>
Plasminogen (Homo sapiens)

>  <Result type>
Ki

>  <Observed>
0.13 nM

$$$$
>  <Structure smiles>
CCCCS(=O)(=O)N[C@@H]1Cc2ccc(cc2)NC(=O)CCN2CCN(CCC(=O)Nc3ccc(cc3)C[C@@H](C(=O)NCc3ccc(C(=N)N)cc3)NC1=O)CC2

>  <Tested on>
Plasminogen (Homo sapiens)

>  <Result type>
Ki

>  <Observed>
0.45 nM

$$$$
>  <Structure smiles>
N=C(N)c1ccc(CNC(=O)[C@@H]2Cc3ccc(cc3)NC(=O)CN3CCN(CC3)CC(=O)Nc3ccc(cc3)C[C@@H](NC(=O)Cc3ccccc3)C(=O)N2)cc1

>  <Tested on>
Plasminogen (Homo sapiens)

>  <Result type>
Ki

>  <Observed>
81.3 nM

$$$$
>  <Structure smiles>
N=C(N)c1ccc(CNC(=O)[C@@H]2Cc3ccc(cc3)NC(=O)CCN3CCN(CCC(=O)Nc4ccc(cc4)C[C@@H](NC(=O)CCCc4ccccc4)C(=O)N2)CC3)cc1

>  <Tested on>
Plasminogen (Homo sapiens)

>  <Result type>
Ki

>  <Observed>
22.7 nM

$$$$

Give Ki (Plasminogen (Homo sapiens)) of the following compound: "N=C(N)NCCCCNC(=O)[C@@H]1Cc2ccc(cc2)NC(=O)CCN2CCN(CCC(=O)Nc3ccc(cc3)C[C@@H](NS(=O)(=O)NC3CCCCC3)C(=O)N1)CC2"
3.7 nM

Give Ki (Plasminogen (Homo sapiens)) of the following compound: "N=C(N)c1ccc(CNC(=O)[C@@H]2Cc3ccc(cc3)NC(=O)CN3CCN(CC3)CC(=O)Nc3ccc(cc3)C[C@@H](NC(=O)CCc3ccccc3)C(=O)N2)cc1"
61.1 nM

Give Ki (Plasminogen (Homo sapiens)) of the following compound: "N=C(N)c1ccc(CNC(=O)[C@@H]2Cc3ccc(cc3)NC(=O)CCN3CCN(CCC(=O)Nc4ccc(cc4)C[C@@H](NC(=O)CCc4ccccc4)C(=O)N2)CC3)cc1"
3.93 nM

Give Ki (Plasminogen (Homo sapiens)) of the following compound: "N=C(N)c1ccc(CNC(=O)[C@@H]2Cc3ccc(cc3)NC(=O)CN3CCN(CC3)CC(=O)Nc3ccc(cc3)C[C@@H](NC(=O)CCCc3ccccc3)C(=O)N2)cc1"
75.3 nM

Give Ki (Plasminogen (Homo sapiens)) of the following compound: "NCc1ccc(CNC(=O)[C@@H]2Cc3ccc(cc3)NC(=O)CCN3CCN(CCC(=O)Nc4ccc(cc4)C[C@@H](NS(=O)(=O)Cc4ccccc4)C(=O)N2)CC3)cc1"
1.2 nM

Give Ki (Plasminogen (Homo sapiens)) of the following compound: "NCc1ccc(CNC(=O)[C@@H]2Cc3ccc(cc3)NC(=O)CCN3CCN(CCC(=O)Nc4ccc(cc4)C[C@@H](NS(=O)(=O)c4ccccc4)C(=O)N2)CC3)cc1.O=C(O)C(F)(F)F.O=C(O)C(F)(F)F.O=C(O)C(F)(F)F"
0.56 nM

Give Ki (Plasminogen (Homo sapiens)) of the following compound: "NCc1ccc(CNC(=O)[C@@H]2Cc3ccc(cc3)NC(=O)CCN3CCN(CCC(=O)Nc4ccc(cc4)C[C@@H](NS(=O)(=O)NC4CCCCC4)C(=O)N2)CC3)cc1"
0.52 nM
